assay: Half life in rat; format: ADME, organism-based; conditions: in vivo
Outcome Measure: half-life (h)

[a] CO[C@H]1CCN(c2nccc(Nc3cc4c(cn3)nc([C@@H](C)O)n4[C@H](C)C(F)(F)F)n2)C[C@H]1F
[b] C[C@@H](O)c1nc2cnc(Nc3ccnc(N4CC[C@H](O)[C@H](F)C4)n3)cc2n1[C@H](C)C(F)(F)F
// which entry has the larger half-life value, a or b ? Lab note: record the label of whichever item you select.
a
(a: 1.7 h, b: 0.71 h)

* * *

assay: Plasma clearance in rat at 5 mg/kg, iv; format: ADME, organism-based
Outcome Measure: clearance (mL/min/kg)

Compound	Reading Unit	Assay Result
Cc1nc2cnc(Nc3ccnc(N4CC[C@H](O)[C@H](F)C4)n3)cc2n1C(C)C (racemic)	mL/min/kg	90
COC1CCN(c2nccc(Nc3cc4c(cn3)nc(C)n4C(C)C)n2)CC1	mL/min/kg	40

[a] C[C@@H](O)c1nc2cnc(Nc3ccnc(N4CC[C@H](O)[C@H](F)C4)n3)cc2n1[C@H](C)C(F)(F)F
[b] CO[C@H]1CCN(c2nccc(Nc3cc4c(cn3)nc([C@@H](C)O)n4[C@H](C)C(F)(F)F)n2)C[C@H]1F
Given the two records a and b , choose the one whose clearance value is lower. Lab note: record the label of whichever item you select.
b
